Values were extracted from PubChem BioAssay AID651687.

# assayComment: inhibitors of PGC1a acetylation signal, primary screen, cell-based, U2OS, AlphaScreen, inhibitor mode (AID 651687);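 further: 0% = neutral control wells and 100% = positive control wells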
# conditionDescription: AlphaScreen anti-acetyl-lysine, at 15.6 µM, active compounds read high, with virally co-expressed GCN5 acetyltransferase
Hit rate of the full screen: of about 350,000 compounds, about 600 (0.17%) were called active. Shown is part of a subset that was picked to be rich in actives.
measureName: inhibition (%)

>>> observedresult("O=C(C[C@H]1C=C[C@@H](NC(=O)c2cnccn2)[C@H](CO)O1)NCc1ccccc1F")
-3.99
>>> observedresult("O=C(C[C@@H]1CC[C@H](NC(=O)Nc2ccc3c(c2)OCO3)[C@H](CO)O1)NCc1ccccc1")
2.06
>>> observedresult("CCS(=O)(=O)NCC[C@H]1CC[C@@H](NC(=O)Nc2cc(Cl)cc(Cl)c2)[C@@H](CO)O1")
-5.94
>>> observedresult("CN1c2ccc(C#Cc3ccccc3F)cc2[C@@H]2[C@@H](CCN2C(=O)Cc2cccnc2)[C@H]1CO")
-8.75
>>> observedresult("CCCC(=O)Nc1ccc2c(c1)C(=O)N(C)[C@@H]1CC[C@H](CC(=O)NCCN3CCCCC3)O[C@@H]1CO2")
1.12
>>> observedresult("O=[N+]([O-])c1c(NCCO)cc(Sc2nc3ccccc3s2)c2nonc12")
45
>>> observedresult("COCC(=O)N1CC2(CN(C(=O)c3cccnc3)C2)c2c([nH]c3cc(OC)ccc23)[C@H]1CO")
3.03
>>> observedresult("C[C@@H]1CN([C@@H](C)CO)C(=O)c2cc(NC(=O)CCCCCC(=O)Nc3ccccc3N)ccc2O[C@@H](C)CCCCO[C@@H]1CN(C)CC1CCCCC1")
3.98

###

# assayComment: inhibitors of PGC1a acetylation signal, primary screen, cell-based, U2OS, AlphaScreen, inhibitor mode (AID 651687);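 further: 0% = neutral control wells and 100% = positive control wells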
# conditionDescription: AlphaScreen anti-acetyl-lysine, at 15.6 µM, with virally co-expressed GCN5 acetyltransferase
Screen size: about 350,000 compounds; about 600 (0.17%) were called active.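 Rule for the calls: active = every replicate shows inhibition of at least 40%; inconclusive = mean inhibition at least 40% but some replicate below; inactive = the rest.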 For the sample, actives were picked, then their nearest neighbours and some compounds at random.
Outcomes: 1.0 = active, 0.0 = inactive

>>> label("Cc1ccc(S(=O)(=O)N2C[C@H](O)COC[C@@H]3O[C@@H](CC(=O)NCC4CCCCC4)CC[C@H]32)cc1")
0.0
>>> label("CO[C@H]1CN(C)C(=O)c2cc(NS(=O)(=O)c3ccccc3)ccc2OC[C@H](C)N(C(=O)NC(C)C)C[C@@H]1C")
0.0
>>> label("Cn1cnc(S(=O)(=O)N2CC[C@@H]3[C@H]2c2cc(C#Cc4cccc(F)c4)ccc2N[C@@H]3CO)c1")
0.0
>>> label("C[C@@H]1CN([C@H](C)CO)C(=O)c2cc(NS(=O)(=O)c3cn(C)cn3)ccc2O[C@@H](C)CCCCO[C@@H]1CN(C)C(=O)CCC(F)(F)F")
0.0
>>> label("COc1ccc(C(N)c2csc(NC(=O)Nc3cccc(C(F)(F)F)c3)n2)cc1 (stereo unspecified)")
0.0
>>> label("COCC(=O)N1[C@H](CO)[C@@H](c2ccccc2)C12CN(Cc1cc(F)ccc1F)C2")
0.0
>>> label("Cc1oc2c(c1C(=O)N1CCOCC1)C(=O)c1ccccc1C2=O")
1.0
>>> label("Cc1ccc(C(=O)N2CCN(S(=O)(=O)N3CCOCC3)CC2)cc1")
0.0
>>> label("O=C(C1CCCC1)N1CC(=O)N2[C@@H](CO)[C@H](c3ccc(C#CC4CCCC4)cc3)[C@@H]2C1")
0.0
>>> label("COc1cc(NC(=O)c2[nH]cnc2C(N)=O)cc(C(=O)Nc2cccc(C(F)(F)F)c2)c1")
1.0
>>> label("CO[C@H]1CN(C)C(=O)c2ccc(NC(=O)c3nc4ccccc4s3)cc2OC[C@@H](C)N(Cc2cncnc2)C[C@H]1C")
0.0
>>> label("CO[C@H]1CN(C)C(=O)c2ccc(NC(=O)NC(C)C)cc2OC[C@@H](C)N(C(=O)CN(C)C)C[C@H]1C")
0.0
>>> label("CC(C)NC(=O)N(C)C[C@H]1OCCCC[C@H](C)Oc2ccc(NS(=O)(=O)c3cccs3)cc2C(=O)N([C@H](C)CO)C[C@@H]1C")
0.0
>>> label("CCCN1C[C@@H](C)[C@H](OC)CN(C)C(=O)c2cc(NC(=O)CC)ccc2OC[C@@H]1C")
0.0
>>> label("O=C(C[C@@H]1C[C@@H]2c3cc(NC(=O)c4ccc5c(c4)OCO5)ccc3O[C@@H]2[C@H](CO)O1)NCCc1ccccc1")
0.0
>>> label("Cc1ccc(S(=O)(=O)Nc2ccc3c(c2)C(=O)N([C@H](C)CO)C[C@@H](C)[C@H](CN(C)Cc2ccccc2)O3)cc1")
0.0
